Hello, the source for this data is ChEMBL document CHEMBL1125223, in case you need it.

Test system: Pseudomonas aeruginosa
Test Method Notes: Concentration required to inhibit Pseudomonas aeruginosa K799/WT stain by standard agar dilution method.
Format: functional
This listing pairs compounds with measured MIC.

Solved cases (3 shown):
CC[C@H]1OC(=O)[C@H](C)[C@@H](O[C@H]2C[C@@](C)(OC)[C@@H](O)[C@H](C)O2)[C@H](C)[C@@H](O[C@@H]2O[C@H](C)C[C@H](N(C)C)[C@H]2O)[C@@](C)(O)C[C@@H](C)[C@@H](N(C)C)[C@H](C)[C@@H](O)[C@@]1(O)CO	> 100 µg/mL
CC[C@H]1OC(=O)[C@H](C)[C@@H](O[C@H]2C[C@@](C)(OC)[C@@H](O)[C@H](C)O2)[C@H](C)[C@@H](O[C@H]2O[C@H](C)C[C@H](N(C)C)[C@H]2O)[C@@](C)(O)C[C@@H](C)[C@@H](N(C)C)[C@H](C)[C@@H](O)[C@@]12CO2	> 100 µg/mL
CC[C@H]1OC(=O)[C@H](C)[C@@H](O[C@H]2C[C@@](C)(OC)[C@@H](O)[C@H](C)O2)[C@H](C)[C@@H](O[C@@H]2O[C@H](C)C[C@H](N(C)C)[C@H]2O)[C@@](C)(O)C[C@@H](C)[C@@H](N(C)C)[C@H](C)[C@@H](O)[C@]1(C)O	> 100 µg/mL

Next, consider the following compound.
Task: Provide MIC, tested on Pseudomonas aeruginosa, for `CC[C@H]1OC(=O)[C@H](C)[C@@H](O[C@H]2C[C@@](C)(OC)[C@@H](O)[C@H](C)O2)[C@H](C)[C@@H](O[C@@H]2O[C@H](C)C[C@H](N(C)C)[C@H]2O)[C@@](C)(O)C[C@@H](C)[C@@H](N(C)C)[C@H](C)[C@@H](O)[C@H]1CO` .
Result: 50 µg/mL

====

Test system: Klebsiella pneumoniae
Test Method Notes: Concentration required to inhibit Klebsiella pneumoniae ATCC 8045 stain by standard agar dilution method.
Assay type: functional
Endpoint Label: MIC (µg/mL)

CC[C@H]1OC(=O)[C@H](C)[C@@H](O[C@H]2C[C@@](C)(OC)[C@@H](O)[C@H](C)O2)[C@H](C)[C@@H](O[C@@H]2O[C@H](C)C[C@H](N(C)C)[C@H]2O)[C@@](C)(O)C[C@@H](C)[C@@H](N(C)C)[C@H](C)[C@@H](O)[C@]1(C)O	25

I. CC[C@H]1OC(=O)[C@H](C)[C@@H](O[C@H]2C[C@@](C)(OC)[C@@H](O)[C@H](C)O2)[C@H](C)[C@@H](O[C@@H]2O[C@H](C)C[C@H](N(C)C)[C@H]2O)[C@@](C)(O)C[C@@H](C)[C@@H](N(C)C)[C@H](C)[C@@H](O)[C@H]1CO
II. CC[C@H]1OC(=O)[C@H](C)[C@@H](O[C@H]2C[C@@](C)(OC)[C@@H](O)[C@H](C)O2)[C@H](C)[C@@H](O[C@H]2O[C@H](C)C[C@H](N(C)C)[C@H]2O)[C@@](C)(O)C[C@@H](C)[C@@H](N(C)C)[C@H](C)[C@@H](O)[C@@]12CO2
Task: Input pair: I , II . Output: entry with lower MIC. Your answer should be the label attached to the chosen record.
Result: I
(I: 50 µg/mL, II: 100 µg/mL)
